# measurement-notes: logP determination by HPLC on a reverse-phase column (EEC Directive 79/831 Annex V.A8)
# Assay type: physicochemical
# experimental-setup: reverse-phase HPLC column (C 18); acidic range pH 2.3; 0.1% aqueous phosphoric acid and acetonitrile, linear gradient 10% to 90% acetonitrile; C 18 column; 43° C.
metric: chromatographic logP
Enter a number only.

Problem: # input compound: CC(C)(C)OC(=O)Nc1ccsc1-c1ccc(Br)cn1 ; wanted: its chromatographic logP
Result: 3.27

Problem: # input compound: CC(C)(C)OC(=O)Nc1ccsc1I [Example (VI-1), tert-butyl (2-iodo-3-thienyl)carbamate] ; wanted: its chromatographic logP
Result: 2.43

Problem: # input compound: Nc1ccsc1-c1ccc(Br)cn1 ; wanted: its chromatographic logP
Result: 0.87

Problem: # input compound: O=C(Nc1ccsc1-c1ccc(Br)cn1)c1cccnc1Cl ; wanted: its chromatographic logP
Result: 2.25
